Cited source for all entries: ChEMBL document CHEMBL1137826

Target: Prostaglandin G/H synthase 1 (Ovis aries)
Sequence (P05979 whole entry): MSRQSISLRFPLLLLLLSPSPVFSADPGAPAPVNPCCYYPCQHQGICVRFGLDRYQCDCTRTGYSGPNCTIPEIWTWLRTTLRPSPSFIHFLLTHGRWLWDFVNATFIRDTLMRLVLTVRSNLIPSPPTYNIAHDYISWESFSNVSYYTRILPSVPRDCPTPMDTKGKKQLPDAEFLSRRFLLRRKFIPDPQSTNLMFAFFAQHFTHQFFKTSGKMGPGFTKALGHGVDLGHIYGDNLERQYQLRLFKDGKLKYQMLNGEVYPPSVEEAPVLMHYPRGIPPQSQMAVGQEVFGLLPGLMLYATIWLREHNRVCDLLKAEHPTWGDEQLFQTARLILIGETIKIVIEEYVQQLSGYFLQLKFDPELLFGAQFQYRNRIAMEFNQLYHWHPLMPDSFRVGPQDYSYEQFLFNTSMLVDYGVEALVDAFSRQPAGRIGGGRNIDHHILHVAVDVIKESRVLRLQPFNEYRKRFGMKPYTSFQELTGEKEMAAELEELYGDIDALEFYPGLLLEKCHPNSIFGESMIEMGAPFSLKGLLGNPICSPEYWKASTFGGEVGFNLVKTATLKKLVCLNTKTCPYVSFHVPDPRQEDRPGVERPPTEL
Hi there, I'd appreciate the recorded IC50 for every entry that follows.

Form: Entry = CC/C(=C(\c1ccccc1)c1ccc(S(C)(=O)=O)cc1)c1ccc(OC(C)=O)cc1 | System = Prostaglandin G/H synthase 1 (Ovis aries) | IC50 = ____
0.25 µM

Cool, now CCCC/C(=C(\c1ccccc1)c1ccc(S(C)(=O)=O)cc1)c1ccc(OC(C)=O)cc1
> 100 µM

Please do the same for CCC/C(=C(\c1ccccc1)c1ccc(S(C)(=O)=O)cc1)c1ccccc1 as well.
> 100 µM
